protocol_summary: self-splicing fitness, log relative to wild type (ln ratio); higher = more splicing; Tetrahymena group I intron in knt gene, E. coli kanamycin selection, DiMSum; sequences stand for … in CUCUCU…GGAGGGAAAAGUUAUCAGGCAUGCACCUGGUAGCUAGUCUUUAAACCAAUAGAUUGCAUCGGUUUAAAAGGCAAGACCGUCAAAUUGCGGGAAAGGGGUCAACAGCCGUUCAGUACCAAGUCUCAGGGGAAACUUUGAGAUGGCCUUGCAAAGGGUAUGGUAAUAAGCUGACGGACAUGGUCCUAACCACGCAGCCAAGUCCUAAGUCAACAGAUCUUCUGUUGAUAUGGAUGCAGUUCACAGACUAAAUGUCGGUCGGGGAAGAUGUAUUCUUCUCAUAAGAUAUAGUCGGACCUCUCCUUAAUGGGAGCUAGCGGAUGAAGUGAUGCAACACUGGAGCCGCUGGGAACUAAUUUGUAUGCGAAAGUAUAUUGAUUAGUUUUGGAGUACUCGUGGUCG;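 also: selection with 25 µg/mL kanamycin versus none on LB agar overnight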
test_context: 30 °C
parameter_measured: self-splicing fitness (ln)
Form field (numeric): enter value without unit.

May I ask what self-splicing fitness (ln) has been recorded for GUAUAGCAAUAUUACGAGGU ? -2.99

May I ask what self-splicing fitness (ln) has been recorded for AAUUAGCAAUAUUACGCUUG ? -0.701

May I ask what self-splicing fitness (ln) has been recorded for GGGAAGCAAUAUUACGCCGG ? -3.75

May I ask what self-splicing fitness (ln) has been recorded for CAAUAGCAAUAUUACGACGA ? -2.18

May I ask what self-splicing fitness (ln) has been recorded for CUGGAGCAAUAUUACGAGUA ? -2.08

May I ask what self-splicing fitness (ln) has been recorded for UCGAAGCAAUAUUACGCCGA ? -0.786

====

protocol_summary: self-splicing fitness, log relative to wild type (ln ratio); higher = more splicing; Tetrahymena group I intron in knt gene, E. coli kanamycin selection, DiMSum; sequences stand for … in CUCUCU…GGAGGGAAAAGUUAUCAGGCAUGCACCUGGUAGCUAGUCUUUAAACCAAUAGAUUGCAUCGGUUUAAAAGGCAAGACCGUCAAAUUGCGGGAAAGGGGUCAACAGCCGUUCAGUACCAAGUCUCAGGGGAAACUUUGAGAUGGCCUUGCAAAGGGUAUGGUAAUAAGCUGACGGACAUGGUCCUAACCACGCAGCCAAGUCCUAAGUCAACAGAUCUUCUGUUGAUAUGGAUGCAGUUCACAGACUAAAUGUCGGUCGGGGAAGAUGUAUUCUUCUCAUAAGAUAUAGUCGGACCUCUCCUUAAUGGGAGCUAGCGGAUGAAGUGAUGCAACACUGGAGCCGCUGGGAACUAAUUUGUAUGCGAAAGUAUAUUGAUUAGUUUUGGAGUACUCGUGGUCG
test_context: 30 °C
parameter_measured: self-splicing fitness (ln)

query_sequence: UACAAGCAAUAUUACGCAUC
reported_result: -2.99
//
query_sequence: CCUCAGCAAUAUUACGGGGA
reported_result: -3.03
//
query_sequence: GUACAGCAAUAUUACGUUUG
reported_result: -3.06

Here is the next item to consider.
May I ask what self-splicing fitness (ln) has been recorded for GUCAAGCAAUAUUACGUGGG ? -3

====

protocol_summary: self-splicing fitness, log relative to wild type (ln ratio); higher = more splicing; Tetrahymena group I intron in knt gene, E. coli kanamycin selection, DiMSum; sequences stand for … in CUCUCU…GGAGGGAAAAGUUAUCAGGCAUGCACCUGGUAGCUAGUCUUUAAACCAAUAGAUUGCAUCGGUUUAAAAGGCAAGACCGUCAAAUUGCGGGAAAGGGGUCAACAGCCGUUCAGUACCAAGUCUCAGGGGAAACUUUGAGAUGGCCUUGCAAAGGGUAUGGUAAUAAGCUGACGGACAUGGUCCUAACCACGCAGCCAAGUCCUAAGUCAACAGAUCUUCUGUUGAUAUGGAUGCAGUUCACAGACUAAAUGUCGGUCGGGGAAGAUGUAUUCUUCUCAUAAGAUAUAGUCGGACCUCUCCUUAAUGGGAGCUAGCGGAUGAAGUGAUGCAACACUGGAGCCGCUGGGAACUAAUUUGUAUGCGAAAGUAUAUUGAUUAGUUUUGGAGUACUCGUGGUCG
test_context: 30 °C
// Not fulfilled strictly below -2 in self-splicing fitness (ln); Fulfilled otherwise

Use these answered entries as a reference point.
query_sequence: UAUUAGCAAUAUUACGCGAC
label_value: Not fulfilled
//
query_sequence: CAUGAGCAAUAUUACGCAUG
label_value: Not fulfilled
//
query_sequence: GACCAGCAAUAUUACGAGCU
label_value: Not fulfilled
//
query_sequence: CAGCAGCAAUAUUACGAAUU
label_value: Not fulfilled
//
query_sequence: CGGCAGCAAUAUUACGCAAU
label_value: Not fulfilled

Please tell me: is the sequence AGGUAGCAAUAUUACGUCUG at or over -2 in terms of self-splicing fitness (ln)? Fulfilled

Please tell me: is the sequence ACCAAGCAAUAUUACGUCGU at or over -2 in terms of self-splicing fitness (ln)? Not fulfilled

Please tell me: is the sequence CCACAGCAAUAUUACGCCGU at or over -2 in terms of self-splicing fitness (ln)? Not fulfilled

Please tell me: is the sequence UACUAGCAAUAUUACGGCGC at or over -2 in terms of self-splicing fitness (ln)? Fulfilled

====

protocol_summary: self-splicing fitness, log relative to wild type (ln ratio); higher = more splicing; Tetrahymena group I intron in knt gene, E. coli kanamycin selection, DiMSum; sequences stand for … in CUCUCU…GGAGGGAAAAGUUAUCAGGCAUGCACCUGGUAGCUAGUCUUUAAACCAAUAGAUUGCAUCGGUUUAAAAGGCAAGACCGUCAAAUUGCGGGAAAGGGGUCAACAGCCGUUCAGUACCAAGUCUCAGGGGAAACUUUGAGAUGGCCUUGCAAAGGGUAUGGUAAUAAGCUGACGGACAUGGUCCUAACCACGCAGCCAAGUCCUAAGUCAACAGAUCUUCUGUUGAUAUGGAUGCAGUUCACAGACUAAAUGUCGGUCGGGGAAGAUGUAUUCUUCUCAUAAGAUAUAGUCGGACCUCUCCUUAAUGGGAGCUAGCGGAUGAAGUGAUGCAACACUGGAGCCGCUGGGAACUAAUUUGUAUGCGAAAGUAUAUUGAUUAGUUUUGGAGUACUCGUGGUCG
test_context: 37 °C
parameter_measured: self-splicing fitness (ln)
Form field (numeric): enter value without unit.

In the examples that follow, each entry is paired with its recorded self-splicing fitness (ln).
query_sequence: AUGUAGCAAUAUUACGCGAA
reported_result: -1.04

query_sequence: GGAUAGCAAUAUUACGACGA
reported_result: -0.57

query_sequence: AUGCAGCAAUAUUACGGAUC
reported_result: -2.7

May I ask what self-splicing fitness (ln) has been recorded for UCCUAGCAAUAUUACGCCGU ? -0.887

May I ask what self-splicing fitness (ln) has been recorded for UCGUAGCAAUAUUACGCGAA ? -0.932

May I ask what self-splicing fitness (ln) has been recorded for UCUAAGCAAUAUUACGGAGC ? -1.68

May I ask what self-splicing fitness (ln) has been recorded for ACCAAGCAAUAUUACGUCAA ? -3

May I ask what self-splicing fitness (ln) has been recorded for ACCCAGCAAUAUUACGGCUC ? -0.423

May I ask what self-splicing fitness (ln) has been recorded for AAAAAGCAAUAUUACGGGGC ? -2.43

May I ask what self-splicing fitness (ln) has been recorded for CGGCAGCAAUAUUACGAUAC ? -2.89

May I ask what self-splicing fitness (ln) has been recorded for CUCCAGCAAUAUUACGCUGC ? -2.07

May I ask what self-splicing fitness (ln) has been recorded for CCACAGCAAUAUUACGCACU ? -2.27

====

protocol_summary: self-splicing fitness, log relative to wild type (ln ratio); higher = more splicing; Tetrahymena group I intron in knt gene, E. coli kanamycin selection, DiMSum; sequences stand for … in CUCUCU…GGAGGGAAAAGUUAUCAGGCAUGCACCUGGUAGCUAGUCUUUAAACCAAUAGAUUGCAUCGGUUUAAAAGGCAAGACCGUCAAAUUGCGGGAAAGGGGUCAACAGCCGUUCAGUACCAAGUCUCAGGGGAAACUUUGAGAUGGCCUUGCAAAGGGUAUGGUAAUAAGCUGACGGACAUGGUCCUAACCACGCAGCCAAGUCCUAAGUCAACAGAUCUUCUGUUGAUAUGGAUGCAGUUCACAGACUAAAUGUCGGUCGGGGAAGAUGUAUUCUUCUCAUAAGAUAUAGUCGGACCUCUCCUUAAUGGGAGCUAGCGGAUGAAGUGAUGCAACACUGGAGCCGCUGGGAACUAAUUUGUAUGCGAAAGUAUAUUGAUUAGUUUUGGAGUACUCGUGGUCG
test_context: 37 °C
The entries below come with measured self-splicing fitness (ln) values attached.
Form field (numeric): enter value without unit.

query_sequence: UGGGAGCAAUAUUACGUUCA
self-splicing fitness (ln): -0.266
//
query_sequence: UUUGAGCAAUAUUACGAUCA
self-splicing fitness (ln): -1.28
//
query_sequence: UGCCAGCAAUAUUACGGAUA
self-splicing fitness (ln): -0.573

May I ask what self-splicing fitness (ln) has been recorded for UAGGAGCAAUAUUACGAAAC ? -2.28

May I ask what self-splicing fitness (ln) has been recorded for AAUGAGCAAUAUUACGUGCA ? -0.932

May I ask what self-splicing fitness (ln) has been recorded for UCUAAGCAAUAUUACGACGA ? 0.116

May I ask what self-splicing fitness (ln) has been recorded for GAAUAGCAAUAUUACGACAG ? -2.62

May I ask what self-splicing fitness (ln) has been recorded for GCAUAGCAAUAUUACGCUGG ? -2.15
